Would you kindly list CC50 for each of these molecules?
# protocol_description: in vitro
# run_parameters: African green monkey

Here are 2 molecules together with their reported answers.
CCCCCCCCCCCCCCCCCCOCCOP(=O)(O)OC[C@H]1O[C@@](C#N)(c2ccc3c(N)ncnn23)[C@H](O)[C@@H]1O [ODE-P-RVn] ... > 100 µM
CCCCCCCCCCCCCCCCOCCCOP(=O)(O)OC[C@H]1O[C@@](C#N)(c2ccc3c(N)ncnn23)[C@H](O)[C@@H]1O [HDP-P-RVn] ... > 100 µM

Field: next molecule
Entry N#C[C@@]1(c2ccc3c(N)ncnn23)O[C@H](CO)[C@@H](O)[C@H]1O [RVn, remdesivir nucleoside, reference compound] — recorded CC50 = > 100 µM
